Reference for the values: paper PMC2756588

# TARGET: T1, Boi2, P39969
# T1 sequence (P39969 32-116, looked up): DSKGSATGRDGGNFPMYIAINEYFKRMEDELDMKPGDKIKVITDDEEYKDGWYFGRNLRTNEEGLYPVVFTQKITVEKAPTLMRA
# ASSAY_REMARKS: SPOT array
# MEASUREMENT_CONTEXT: median of control spots 1161
EXPERIMENTAL_ENDPOINT: SPOT intensity

{"BINDER": "KKAPPPVVKPKPRNF", "EXPERIMENTAL_ENDPOINT": "SPOT intensity", "OBSERVED_MEASUREMENT": 3}
{"BINDER": "ANNQGPPNLPARDKS", "EXPERIMENTAL_ENDPOINT": "SPOT intensity", "OBSERVED_MEASUREMENT": 0}
{"BINDER": "MAMRPIPPLPTESEY", "EXPERIMENTAL_ENDPOINT": "SPOT intensity", "OBSERVED_MEASUREMENT": 1}
{"BINDER": "KMSRSPPRPPSLKII", "EXPERIMENTAL_ENDPOINT": "SPOT intensity", "OBSERVED_MEASUREMENT": 0}
{"BINDER": "VNIPSPSSSPPPIPK", "EXPERIMENTAL_ENDPOINT": "SPOT intensity", "OBSERVED_MEASUREMENT": 0}
{"BINDER": "NRPAIRIPSLKKPAL", "EXPERIMENTAL_ENDPOINT": "SPOT intensity", "OBSERVED_MEASUREMENT": 0}
{"BINDER": "STPQTMRQAPKRPDA", "EXPERIMENTAL_ENDPOINT": "SPOT intensity", "OBSERVED_MEASUREMENT": 1}
